Can you tell me kcat (LLO analog) for the items I'm about to list?
Assayed Target: TbSTT3A (Trypanosoma brucei, UniProt Q57W34)
Test Name: Michaelis-Menten kinetics of the LLO analogs
Format: biochemical
Experimental Parameters: 20 nM TbSTT3A, 10 µM acceptor peptide, varying LLO analog concentration

Input: // kcat (LLO analog) lookup, key: CC(=O)N[C@H]1[C@@H](OP(=O)(O)OP(=O)(O)OCC[C@@H](C)CCC=C(C)C)O[C@H](CO)[C@@H](O[C@@H]2O[C@H](CO)[C@@H](O)[C@H](O)[C@H]2NC(C)=O)[C@@H]1O [1a]
Output: 9.1 ± 0.5 pep/min

Input: I'd like to know its kcat (LLO analog). The molecule in question is CC(=O)NC1C(OC2C(CO)OC(OP(=O)(O)OP(=O)(O)OCCC(C)CCC=C(C)CCC=C(C)CCC=C(C)C)C(NC(C)=O)C2O)OC(CO)C(O)C1O (stereo not shown) [1c]
Output: 23 ± 1 pep/min

Input: I am curious: what kcat (LLO analog) value has been reported for CC(=O)N[C@H]1[C@@H](OP(=O)(O)OP(=O)(O)OCC[C@@H](C)CC/C=C(/C)CC/C=C(\C)CC/C=C(\C)CCC=C(C)C)O[C@H](CO)[C@@H](O[C@@H]2O[C@H](CO)[C@@H](O)[C@H](O)[C@H]2NC(C)=O)[C@@H]1O [1d] ?
Output: 16 ± 1 pep/min

Input: // kcat (LLO analog) lookup, key: CC(=O)N[C@H]1[C@@H](OP(=O)(O)OP(=O)(O)OC/C=C(\C)CC/C=C(\C)CCC=C(C)C)O[C@H](CO)[C@@H](O[C@@H]2O[C@H](CO)[C@@H](O)[C@H](O)[C@H]2NC(C)=O)[C@@H]1O [1b]
Output: 12 ± 1 pep/min

* * *

Assayed Target: UniProtKB Q57W34
Sequence (Q57W34 1-801): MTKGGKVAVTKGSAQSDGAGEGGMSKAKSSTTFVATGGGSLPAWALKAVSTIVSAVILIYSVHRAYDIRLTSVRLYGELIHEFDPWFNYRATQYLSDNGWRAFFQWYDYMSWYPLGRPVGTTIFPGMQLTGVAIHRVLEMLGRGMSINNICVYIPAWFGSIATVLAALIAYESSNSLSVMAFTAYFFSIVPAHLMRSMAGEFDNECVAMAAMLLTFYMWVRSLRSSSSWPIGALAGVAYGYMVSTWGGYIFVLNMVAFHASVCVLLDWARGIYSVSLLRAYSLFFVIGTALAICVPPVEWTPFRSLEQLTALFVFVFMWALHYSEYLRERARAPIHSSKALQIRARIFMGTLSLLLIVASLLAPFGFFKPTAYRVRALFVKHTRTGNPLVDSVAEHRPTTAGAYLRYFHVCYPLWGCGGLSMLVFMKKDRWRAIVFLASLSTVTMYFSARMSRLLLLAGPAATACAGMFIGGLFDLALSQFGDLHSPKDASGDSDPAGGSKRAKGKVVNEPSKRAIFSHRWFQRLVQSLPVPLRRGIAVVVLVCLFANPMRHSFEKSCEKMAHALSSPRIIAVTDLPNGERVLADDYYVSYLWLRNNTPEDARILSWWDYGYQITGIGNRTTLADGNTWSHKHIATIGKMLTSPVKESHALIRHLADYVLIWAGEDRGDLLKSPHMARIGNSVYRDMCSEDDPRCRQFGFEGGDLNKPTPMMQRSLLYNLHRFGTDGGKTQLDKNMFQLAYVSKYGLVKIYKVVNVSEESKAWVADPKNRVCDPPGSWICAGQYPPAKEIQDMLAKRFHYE
Property Label: IC50 (µM)
// units = µM; emit number, no label

Input: API: value(readout= IC50, system= UniProtKB Q57W34, query= CC(=O)N[C@@H]1[C@@H](O)[C@H](O[C@@H]2O[C@H](CO)[C@@H](O)[C@H](O)[C@H]2NC(C)=O)[C@@H](CO)O[C@@H]1CP(=O)(O)OP(=O)(O)OCC[C@@H](C)CC/C=C(/C)CC/C=C(\C)CC/C=C(\C)CCC=C(C)C [34d] )
Output: 26

Input: Param readout= IC50; system= UniProtKB Q57W34; entry= CC(=O)N[C@@H]1[C@@H](O)[C@H](O[C@@H]2O[C@H](CO)[C@@H](O)[C@H](O)[C@H]2NC(C)=O)[C@@H](CO)O[C@@H]1CP(=O)(O)OP(=O)(O)OC/C=C(\C)CC/C=C(\C)CCC=C(C)C [34b] ; returns value.
Output: 167
